Where do these numbers come from? They come from the array DNA melting data of Ke et al. (doi:10.1101/2024.01.08.574731).

- ASSAY DETAILS: folding enthalpy; higher = less favourable; fluorescence melt of hairpins on a sequencing array, two-state fit
- CONDITION CONTEXT: sodium 0.088 M
Tag: class 1 if measured folding enthalpy is not below -20 kcal/mol, class 0 if it is.

Check if folding enthalpy >= -20 kcal/mol (inclusive). Item: GTGCCCGAAAGGGTTCAC ((((((....)))..)))
class 1

Check if folding enthalpy >= -20 kcal/mol (inclusive). Item: GATCCACGTATGGATC ((((((....))))))
class 0

Check if folding enthalpy >= -20 kcal/mol (inclusive). Item: GAACACGAAAGTGTCTTC ((((((....)))..)))
class 0

Others:
Check if folding enthalpy >= -20 kcal/mol (inclusive). Item: GTCGGTGGAAACACCGGC (.(((((....))))).)
class 0

Check if folding enthalpy >= -20 kcal/mol (inclusive). Item: GCATGAGCGAAAGCTTGC (((..(((....))))))
class 1

Check if folding enthalpy >= -20 kcal/mol (inclusive). Item: GTGCTCGAAAGAGGCAC ((((((....))).)))
class 0

Check if folding enthalpy >= -20 kcal/mol (inclusive). Item: GATCGCCCATGCGATC ((((((....))))))
class 0

Check if folding enthalpy >= -20 kcal/mol (inclusive). Item: GCTTGGGGAAACTCAAGC (((((.(....).)))))
class 0

Check if folding enthalpy >= -20 kcal/mol (inclusive). Item: GCTACAGGAAACTGTAAC (.(((((....))))).)
class 1

Check if folding enthalpy >= -20 kcal/mol (inclusive). Item: GGTACCGGAAACGGTATC (.(((((....))))).)
class 0

Check if folding enthalpy >= -20 kcal/mol (inclusive). Item: GCGAATCATCGC ((((....))))
class 0

Check if folding enthalpy >= -20 kcal/mol (inclusive). Item: GATATAGGAAACTATGTC ((.((((....)))).))
class 0

###

- ASSAY DETAILS: folding enthalpy; higher = less favourable; fluorescence melt of hairpins on a sequencing array, two-state fit
- CONDITION CONTEXT: sodium 0.088 M
Assign a class from recorded folding enthalpy; defined classes: bin 0 = under -30 kcal/mol, bin 1 = from -30 kcal/mol up to -20 kcal/mol, bin 2 = -20 kcal/mol and over

Sort into band: GATGGCGGAAACGTCATC ((((.((....)).))))
bin 0

Others:
Sort into band: GATCGTAATACGATC ((((((...))))))
bin 0

###

- ASSAY DETAILS: folding enthalpy; higher = less favourable; fluorescence melt of hairpins on a sequencing array, two-state fit
- CONDITION CONTEXT: sodium 0.088 M
OUTCOME MEASURE: folding enthalpy (kcal/mol)
Respond with the bare value in kcal/mol.

Find the measured folding enthalpy of GTCAGACGAAAGTCGAC (((.(((....)))))) and report it.
-31.5

Find the measured folding enthalpy of GTTCATCGAAAGATAAC (((.(((....)))))) and report it.
-12.4

Find the measured folding enthalpy of AACGTGAAAACGTT (((((....))))) and report it.
-19.2

Others:
Find the measured folding enthalpy of GATCCAAGCTTGGATC ((((((....)))))) and report it.
-54.6

Find the measured folding enthalpy of GCTGTGAAAACAGC (((((....))))) and report it.
-30.2

Find the measured folding enthalpy of GTGAAGAAATTCAC (((((....))))) and report it.
-18.8

Find the measured folding enthalpy of GAGTCAGGAAACTGACCC (.(((((....))))).) and report it.
-13.4

Find the measured folding enthalpy of GATCTTTTTAAGATC ((((((...)))))) and report it.
-32.2

Find the measured folding enthalpy of GACAAGGGAAACCCTGTC ((((.((....)).)))) and report it.
-27.8

Find the measured folding enthalpy of GCGTCTTCGAAAGAACGC (((..(((....)))))) and report it.
-26

Find the measured folding enthalpy of GTTCACGAAAGTGAGAAC ((((((....)))..))) and report it.
-11.2

Find the measured folding enthalpy of GTTTCGCGAAAGCGTAAC (((.(((....))).))) and report it.
-21.9

Find the measured folding enthalpy of CGCTCGGAAACGATAGCG ((((((....)))..))) and report it.
-30.9

###

- ASSAY DETAILS: melting temperature; fluorescence melt of hairpins on a sequencing array, two-state fit, raised by 9.35 °C to match UV melts
- CONDITION CONTEXT: sodium 0.088 M
Decide using Tm alone. Strictly below 50 °C: Y. Equal to or above 50 °C: N.

Solved entries (count: 10):
is_below(Tm, 50 °C) for GAAGTGGGAAACCATTTC (((.(((....))).))) ?
Y

is_below(Tm, 50 °C) for GTTAGTGGAAACACCAAC (((.(((....))).))) ?
Y

is_below(Tm, 50 °C) for GAAGTGCCGAAAGGCTTC (((..(((....)))))) ?
Y

is_below(Tm, 50 °C) for CGGTGCGGAAACGCCCCG (((.(((....))).))) ?
N

is_below(Tm, 50 °C) for GCAGAGCGAAAGCCTTGC (((..((....))..))) ?
Y

is_below(Tm, 50 °C) for GTCATTGGAAACAATGGC (.(((((....))))).) ?
Y

is_below(Tm, 50 °C) for GATCCATCAGTGGATC ((((((....)))))) ?
N

is_below(Tm, 50 °C) for GGGGTCGGAAACGGCCCC ((((.((....)).)))) ?
N

is_below(Tm, 50 °C) for GCGAAAGGAAACTTTCAC (.(((((....))))).) ?
Y

is_below(Tm, 50 °C) for TCAAGGAAACTTGA (((((....))))) ?
Y

Others:
is_below(Tm, 50 °C) for GGACTCGAAAGAGATTCC ((((((....)))..))) ?
Y

is_below(Tm, 50 °C) for GATCTGGGAACAGATC ((((((....)))))) ?
N

is_below(Tm, 50 °C) for GGATATACGAAAGTATCC (((..(((....)))))) ?
Y

is_below(Tm, 50 °C) for GAGCAAGGAAACTTGTTC ((.((((....)))).)) ?
Y

is_below(Tm, 50 °C) for GATAGTGGAAACACTATC (((((((....))))))) ?
N

is_below(Tm, 50 °C) for GCGGCACCCCGC ((((....)))) ?
N

###

- ASSAY DETAILS: melting temperature; fluorescence melt of hairpins on a sequencing array, two-state fit, raised by 9.35 °C to match UV melts
- CONDITION CONTEXT: sodium 0.088 M
Tag: y if measured Tm is not below 50 °C, n if it is.

Solved entries (count: 3):
Check if Tm >= 50 °C (inclusive). Item: GAACCCGAAAGGGATTC ((((((....))).)))
n

Check if Tm >= 50 °C (inclusive). Item: GATCAACCCATTGATC ((((((....))))))
n

Check if Tm >= 50 °C (inclusive). Item: GAATGGGGAAACCCGTTC (((.(((....))).)))
n

Let us examine a further case.
Check if Tm >= 50 °C (inclusive). Item: GCGAACAGTCGC ((((....))))
n

###

- ASSAY DETAILS: folding enthalpy; higher = less favourable; fluorescence melt of hairpins on a sequencing array, two-state fit
- CONDITION CONTEXT: sodium 0.088 M
Below, each of the sequences is paired with its reported folding enthalpy value.
Respond with the bare value in kcal/mol.

Worked set:
Find the measured folding enthalpy of GCAGGCGAAAGCCATGC ((((((....))).))) and report it.
-19.9

Find the measured folding enthalpy of CGCTCACGGAAACGTGCG (((..(((....)))))) and report it.
-15.6

Find the measured folding enthalpy of GCAGACGAAAGTCTATGC ((((((....)))..))) and report it.
-14.9

Find the measured folding enthalpy of GTCTCTACGAAAGTAGAC (((..(((....)))))) and report it.
-11.2

Okay, next one:
Find the measured folding enthalpy of GTCAGCGAAAGCTAAGAC ((((((....)))..))) and report it.
-16.7

###

- ASSAY DETAILS: melting temperature; fluorescence melt of hairpins on a sequencing array, two-state fit, raised by 9.35 °C to match UV melts
- CONDITION CONTEXT: sodium 0.088 M
OUTCOME MEASURE: Tm (°C)
Respond with the bare value in °C.

Worked set:
Find the measured Tm of GGTCGGCCGAAAGGCACC (((..(((....)))))) and report it.
34.7

Find the measured Tm of GATCGGAGTCCGATC ((((((...)))))) and report it.
54

Find the measured Tm of GATCTCAGGGGAGATC ((((((....)))))) and report it.
52.5

Okay, next one:
Find the measured Tm of GATCTACATTTAGATC ((((((....)))))) and report it.
39
